System: Mycobacterium tuberculosis
assay: Ratio of Kcat/Km for Mycobacterium tuberculosis F420-dependent nitroreductase by Michaelis-Menten equation
Set-up: unit not given here
quantity_measured: kcat/Km

[[record]]
compound_string = "O=[N+]([O-])c1cnc2n1C[C@H](OCc1ccc(OC(F)(F)F)cc1)CO2"
tested_system = "Mycobacterium tuberculosis"
quantity_measured = "kcat/Km"
number = 0.0817

[[record]]
compound_string = "O=[N+]([O-])c1cn2c(n1)OC[C@@H](OCc1ccc(OC(F)(F)F)cc1)C2"
tested_system = "Mycobacterium tuberculosis"
quantity_measured = "kcat/Km"
number = 0.145

[[record]]
compound_string = "O=[N+]([O-])c1cn2c(n1)OC[C@@H](O)C2"
tested_system = "Mycobacterium tuberculosis"
quantity_measured = "kcat/Km"
number = 0.005

[[record]]
compound_string = "O=[N+]([O-])c1cn2c(n1)C=C[C@@H](OCc1ccc(OC(F)(F)F)cc1)C2"
tested_system = "Mycobacterium tuberculosis"
quantity_measured = "kcat/Km"
number = 0.0476

[[record]]
compound_string = "Cc1ncc([N+](=O)[O-])n1CCOCc1ccc(OC(F)(F)F)cc1"
tested_system = "Mycobacterium tuberculosis"
quantity_measured = "kcat/Km"
number = 0.005

[[record]]
compound_string = "O=[N+]([O-])c1cn2c(n1)CC[C@@H](OCc1ccc(OC(F)(F)F)cc1)C2"
tested_system = "Mycobacterium tuberculosis"
quantity_measured = "kcat/Km"
number = 0.0235

[[record]]
compound_string = "COc1nc([N+](=O)[O-])cn1CCOCc1ccc(OC(F)(F)F)cc1"
tested_system = "Mycobacterium tuberculosis"
quantity_measured = "kcat/Km"
number = 0.03

[[record]]
compound_string = "O=[N+]([O-])c1cnc2n1C[C@H](O)CO2"
tested_system = "Mycobacterium tuberculosis"
quantity_measured = "kcat/Km"
number = 0.003

[[record]]
compound_string = "CO[C@@H]1COc2nc([N+](=O)[O-])cn2C1"
tested_system = "Mycobacterium tuberculosis"
quantity_measured = "kcat/Km"
number = 0.0079


Origin of values: ChEMBL document CHEMBL1140917
